Biological target: Receptor-interacting serine/threonine-protein kinase 1 (Homo sapiens)
Sequence (Q13546 whole entry): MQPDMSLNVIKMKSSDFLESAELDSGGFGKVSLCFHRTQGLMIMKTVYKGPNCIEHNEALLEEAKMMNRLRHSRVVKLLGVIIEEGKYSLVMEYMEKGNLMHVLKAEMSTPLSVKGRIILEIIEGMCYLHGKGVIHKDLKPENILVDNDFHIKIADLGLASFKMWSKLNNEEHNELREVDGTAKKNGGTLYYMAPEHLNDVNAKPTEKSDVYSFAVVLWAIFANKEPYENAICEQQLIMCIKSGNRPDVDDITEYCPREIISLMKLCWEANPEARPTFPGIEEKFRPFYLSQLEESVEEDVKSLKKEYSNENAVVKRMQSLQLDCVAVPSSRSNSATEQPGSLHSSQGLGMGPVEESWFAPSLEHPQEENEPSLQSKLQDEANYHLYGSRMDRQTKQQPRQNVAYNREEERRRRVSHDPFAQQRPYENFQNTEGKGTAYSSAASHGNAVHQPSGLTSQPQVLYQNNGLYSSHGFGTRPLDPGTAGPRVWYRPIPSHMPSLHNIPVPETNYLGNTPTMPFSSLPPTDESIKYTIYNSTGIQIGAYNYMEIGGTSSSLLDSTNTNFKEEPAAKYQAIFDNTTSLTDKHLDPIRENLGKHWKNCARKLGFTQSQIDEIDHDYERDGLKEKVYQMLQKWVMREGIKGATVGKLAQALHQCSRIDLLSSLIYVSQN
Test: Binding affinity to recombinant RIPK1 (unknown origin) assessed as dissociation constant by kinomescan assay
RECORDED_ENDPOINT: Kd (nM)

Known Kd results, listed for orientation:
- COMPOUND_STRING: "COC(=O)c1ccc(C#Cc2ccc3c(c2)N(C)C(=S)[C@@H](NC(=O)c2n[nH]c(Cc4ccccc4)n2)CO3)cc1"
  Kd, nM: 83
- COMPOUND_STRING: "CN1C(=S)[C@@H](NC(=O)c2n[nH]c(Cc3ccccc3)n2)COc2ccc(C#Cc3ccc(C#N)cc3)cc21"
  Kd, nM: 92
- COMPOUND_STRING: "CN1C(=S)[C@@H](NC(=O)c2n[nH]c(Cc3ccccc3)n2)COc2ccc(C#Cc3ccccc3C#N)cc21"
  Kd, nM: 78
- COMPOUND_STRING: "CN1C(=S)[C@@H](NC(=O)c2n[nH]c(Cc3ccccc3)n2)COc2ccc(C#Cc3ccc([N+](=O)[O-])cc3)cc21"
  Kd, nM: 150
- COMPOUND_STRING: "CN1C(=S)[C@@H](NC(=O)c2n[nH]c(Cc3ccccc3)n2)COc2ccc(C#Cc3cccc([N+](=O)[O-])c3)cc21"
  Kd, nM: 230
- COMPOUND_STRING: "CN1C(=S)[C@@H](NC(=O)c2n[nH]c(Cc3ccccc3)n2)COc2ccc(C#Cc3cccc(C#N)c3)cc21"
  Kd, nM: 70
- COMPOUND_STRING: "C#Cc1ccc2c(c1)N(C)C(=S)[C@@H](NC(=O)c1n[nH]c(Cc3ccccc3)n1)CO2"
  Kd, nM: 9.7

A. CN1C(=S)[C@@H](NC(=O)c2n[nH]c(Cc3ccccc3)n2)COc2ccc(C#CC3CC3)cc21
B. COC(=O)c1cccc(C#Cc2ccc3c(c2)N(C)C(=S)[C@@H](NC(=O)c2n[nH]c(Cc4ccccc4)n2)CO3)c1
Consider entries A and B . Which has the numerically lower Kd? Answer format: the label of the selected item.
A
(A: 40 nM, B: 160 nM)

====

Reported pEC50 values for the following molecules.
System: HT-29
Experiment: Anti-necroptosis activity against human HT-29 cells assessed as inhibition of TSZ-induced necroptosis preincubated for 30 mins followed by compound addition and measured for 16 hrs by Cell-titer-glo assay
Format: functional, cell-based
Field pEC50 (float): negative decimal logarithm of the concentration in molar.

Known pEC50 results, listed for orientation:
- COMPOUND_STRING: "COc1cccc(C#Cc2ccc3c(c2)N(C)C(=S)[C@@H](NC(=O)c2n[nH]c(Cc4ccccc4)n2)CO3)c1"
  pEC50: 7.95
- COMPOUND_STRING: "COC(=O)c1cccc(C#Cc2ccc3c(c2)N(C)C(=S)[C@@H](NC(=O)c2n[nH]c(Cc4ccccc4)n2)CO3)c1"
  pEC50: 7.97
- COMPOUND_STRING: "CN1C(=S)[C@@H](NC(=O)c2n[nH]c(Cc3ccccc3)n2)COc2ccc(C#Cc3ccc(C(F)(F)F)cc3)cc21"
  pEC50: 7.59
- COMPOUND_STRING: "C#Cc1ccc2c(c1)N(C)C(=S)[C@@H](NC(=O)c1n[nH]c(Cc3ccccc3)n1)CO2"
  pEC50: 8.43
- COMPOUND_STRING: "CN1C(=S)[C@@H](NC(=O)c2n[nH]c(Cc3ccccc3)n2)COc2ccc(C#CC3CC3)cc21"
  pEC50: 8.06
- COMPOUND_STRING: "CN1C(=S)[C@@H](NC(=O)c2n[nH]c(Cc3ccccc3)n2)COc2ccc(C#C[Si](C)(C)C)cc21"
  pEC50: 7.69
- COMPOUND_STRING: "CN1C(=S)[C@@H](NC(=O)c2n[nH]c(Cc3ccccc3)n2)COc2ccc(C#CCc3ccccc3)cc21"
  pEC50: 7.84
- COMPOUND_STRING: "COc1ccccc1C#Cc1ccc2c(c1)N(C)C(=S)[C@@H](NC(=O)c1n[nH]c(Cc3ccccc3)n1)CO2"
  pEC50: 7.97

Item CN1C(=S)[C@@H](NC(=O)c2n[nH]c(Cc3ccccc3)n2)COc2ccc(C#Cc3ccccc3)cc21 has what recorded pEC50?
7.90

Item CN1C(=S)[C@@H](NC(=O)c2n[nH]c(Cc3ccccc3)n2)COc2ccc(C#Cc3ccccc3[N+](=O)[O-])cc21 has what recorded pEC50?
7.82

Item CN1C(=S)[C@@H](NC(=O)c2n[nH]c(Cc3ccccc3)n2)COc2ccc(C#Cc3ccccc3OC(F)(F)F)cc21 has what recorded pEC50?
7.44

Item CN1C(=S)[C@@H](NC(=O)c2n[nH]c(Cc3ccccc3)n2)COc2ccc(C#Cc3cccc(Cl)c3)cc21 has what recorded pEC50?
7.62

Item CN1C(=S)[C@@H](NC(=O)c2n[nH]c(Cc3ccccc3)n2)COc2ccc(C#Cc3ccc([N+](=O)[O-])cc3)cc21 has what recorded pEC50?
8.17

Item CN1C(=S)[C@@H](NC(=O)c2n[nH]c(Cc3ccccc3)n2)COc2ccc(C#Cc3ccccc3C(F)(F)F)cc21 has what recorded pEC50?
7.38

Item CN1C(=S)[C@@H](NC(=O)c2n[nH]c(Cc3ccccc3)n2)COc2ccc(C#Cc3cccc(C(F)(F)F)c3)cc21 has what recorded pEC50?
7.32

Item COc1ccc(C#Cc2ccc3c(c2)N(C)C(=S)[C@@H](NC(=O)c2n[nH]c(Cc4ccccc4)n2)CO3)cc1 has what recorded pEC50?
6.52

====

Reported EC50 values for the following molecules.
System: HT-29
Assay: Anti-necroptosis activity against human HT-29 cells assessed as inhibition of TSZ-induced necroptosis preincubated for 30 mins followed by compound addition and measured for 16 hrs by Cell-titer-glo assay
Type: functional, cell-based
State the answer as a number, implicitly in nM.

Known EC50 results, listed for orientation:
- COMPOUND_STRING: "CN1C(=S)[C@@H](NC(=O)c2n[nH]c(Cc3ccccc3)n2)COc2ccc(C#Cc3ccc(OC(F)(F)F)cc3)cc21"
  TARGET_ENTITY: "HT-29"
  MEASUREMENT: 10.4
- COMPOUND_STRING: "CN1C(=S)[C@@H](NC(=O)c2n[nH]c(Cc3ccccc3)n2)COc2ccc(C#Cc3cccc(OC(F)(F)F)c3)cc21"
  TARGET_ENTITY: "HT-29"
  MEASUREMENT: 27
- COMPOUND_STRING: "COC(=O)c1ccccc1C#Cc1ccc2c(c1)N(C)C(=S)[C@@H](NC(=O)c1n[nH]c(Cc3ccccc3)n1)CO2"
  TARGET_ENTITY: "HT-29"
  MEASUREMENT: 32.9
- COMPOUND_STRING: "Cc1ccccc1C#Cc1ccc2c(c1)N(C)C(=S)[C@@H](NC(=O)c1n[nH]c(Cc3ccccc3)n1)CO2"
  TARGET_ENTITY: "HT-29"
  MEASUREMENT: 23.3
- COMPOUND_STRING: "CN1C(=S)[C@@H](NC(=O)c2n[nH]c(Cc3ccccc3)n2)COc2ccc(C#Cc3cccc(F)c3)cc21"
  TARGET_ENTITY: "HT-29"
  MEASUREMENT: 22.6

Item CN1C(=S)[C@@H](NC(=O)c2n[nH]c(Cc3ccccc3)n2)COc2ccc(C#Cc3ccccc3F)cc21 has what recorded EC50?
32.3

Item CN1C(=S)[C@@H](NC(=O)c2n[nH]c(Cc3ccccc3)n2)COc2ccc(C#Cc3ccccc3Cl)cc21 has what recorded EC50?
14

Item CN1C(=S)[C@@H](NC(=O)c2n[nH]c(Cc3ccccc3)n2)COc2ccc(C#Cc3ccccc3C#N)cc21 has what recorded EC50?
7.7

====

Assay: Half life in mouse
Assay type: ADME, organism-based
Settings: in vivo
RECORDED_ENDPOINT: half-life

Item CN1C(=O)C(Cc2c[nH]c3ccccc23)NC1=S (stereo unspecified) [NECROSTATIN] has what recorded half-life?
< 5 min
